TEST: Plasma concentration in Swiss albino mouse at 50 mg/kg, ip measured after 8 hrs by LC-MS/MS analysis
Format: ADME, organism-based
MEASUREMENT NAME: concentration at 8 h (nM)

1) Cc1ncsc1-c1ccc([C@H](C)NC(=O)[C@@H]2C[C@@H](O)CN2C(=O)[C@@H](NC(=O)CCCCCCCCCCNCCCONC(=O)c2ccc(F)c(F)c2Nc2ccc(I)cc2F)C(C)(C)C)cc1 710

----------
TEST: Maximum drug concentration in Swiss albino mouse plasma at 50 mg/kg, ip measured after 0.5 hrs by LC-MS/MS analysis
Assay type: ADME, organism-based
Design: dose 50 mg/kg, route intraperitoneal
MEASUREMENT NAME: Cmax (nM)

1. Cc1ncsc1-c1ccc([C@H](C)NC(=O)[C@@H]2C[C@@H](O)CN2C(=O)[C@@H](NC(=O)CCCCCCCCCCNCCCONC(=O)c2ccc(F)c(F)c2Nc2ccc(I)cc2F)C(C)(C)C)cc1 1400
